Biological target: UniProtKB O39930
Sequence (O39930 whole entry): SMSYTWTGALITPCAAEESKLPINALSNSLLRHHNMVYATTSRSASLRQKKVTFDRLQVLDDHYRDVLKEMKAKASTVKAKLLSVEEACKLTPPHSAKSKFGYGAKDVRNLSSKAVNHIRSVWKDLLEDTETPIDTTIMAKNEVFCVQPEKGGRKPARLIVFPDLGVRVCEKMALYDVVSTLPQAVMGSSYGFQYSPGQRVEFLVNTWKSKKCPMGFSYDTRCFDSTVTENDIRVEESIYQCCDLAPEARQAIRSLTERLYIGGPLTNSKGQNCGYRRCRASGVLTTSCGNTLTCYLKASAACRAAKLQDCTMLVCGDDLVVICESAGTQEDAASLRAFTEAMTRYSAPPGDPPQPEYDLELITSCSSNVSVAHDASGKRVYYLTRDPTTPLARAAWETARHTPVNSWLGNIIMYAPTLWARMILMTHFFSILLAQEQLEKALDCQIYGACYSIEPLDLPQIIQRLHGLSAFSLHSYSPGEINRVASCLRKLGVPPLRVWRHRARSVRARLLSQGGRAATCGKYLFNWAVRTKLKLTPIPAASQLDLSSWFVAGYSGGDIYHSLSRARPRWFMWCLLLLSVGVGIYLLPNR
Assay: Inhibitory activity against HCV 3a BK NS5B deltaC21 RNA polymerase
MEASURED METRIC: IC50 (µM)
Answer in µM, number only, no unit symbol.

## Input Specify measured IC50 for O=C(NCc1ccccc1Cl)Nc1ccsc1-c1nc(O)c(O)c(C(=O)O)n1 .
## Output 0.048

----------
Target: Hepatitis C virus
Experiment: Inhibition of subgenomic HCV RNA replication in Huh-7 cells (replicon assay)
MEASURED METRIC: pEC50
Please report pEC50 as the negative decimal logarithm of the molar concentration, giving only the number.

Past entries and their recorded results:
CHEMICAL STRUCTURE	pEC50
O=C(Nc1ccsc1-c1nc(O)c(O)c(C(=O)O)n1)OCc1ccccc1Cl	4.50
Cc1cccc(Cl)c1CNC(=O)Nc1ccsc1-c1nc(O)c(O)c(C(=O)O)n1	4.87
O=C(Nc1ccsc1-c1nc(O)c(O)c(C(=O)O)n1)OCc1c(Cl)cccc1Cl	4.73

## Input Specify measured pEC50 for O=C(NCc1csc2ccccc12)Nc1ccsc1-c1nc(O)c(O)c(C(=O)O)n1 .
## Output 4.52

## Input Specify measured pEC50 for O=C(Nc1ccsc1-c1nc(C(=O)O)c(O)c(=O)[nH]1)OCc1cccc2ccccc12 .
## Output 4.87

## Input Specify measured pEC50 for O=C(Cc1ccccc1Cl)Nc1ccsc1-c1nc(O)c(O)c(C(=O)O)n1 .
## Output 4.27

## Input Specify measured pEC50 for O=C(NCc1ccccc1Cl)Nc1ccsc1-c1nc(O)c(O)c(C(=O)O)n1 .
## Output 5.03

----------
Target: Hepatitis C virus
Assay: Inhibition of subgenomic HCV RNA replication in Huh-7 cells (replicon assay)
MEASURED METRIC: EC50

## Input Specify measured EC50 for O=C(Nc1ccccc1)Nc1ccsc1-c1nc(O)c(O)c(C(=O)O)n1 .
## Output > 50 µM

## Input Specify measured EC50 for O=C(NCCc1ccccc1)Nc1ccsc1-c1nc(O)c(O)c(C(=O)O)n1 .
## Output > 50 µM

## Input Specify measured EC50 for O=C(CCc1ccccc1)Nc1ccsc1-c1nc(O)c(O)c(C(=O)O)n1 .
## Output > 50 µM

meta.source: ChEMBL document CHEMBL1138187
